- Measurement target: rat 5-HT2A receptor (Rattus norvegicus, UniProt P14842)
- Sequence (P14842 whole entry): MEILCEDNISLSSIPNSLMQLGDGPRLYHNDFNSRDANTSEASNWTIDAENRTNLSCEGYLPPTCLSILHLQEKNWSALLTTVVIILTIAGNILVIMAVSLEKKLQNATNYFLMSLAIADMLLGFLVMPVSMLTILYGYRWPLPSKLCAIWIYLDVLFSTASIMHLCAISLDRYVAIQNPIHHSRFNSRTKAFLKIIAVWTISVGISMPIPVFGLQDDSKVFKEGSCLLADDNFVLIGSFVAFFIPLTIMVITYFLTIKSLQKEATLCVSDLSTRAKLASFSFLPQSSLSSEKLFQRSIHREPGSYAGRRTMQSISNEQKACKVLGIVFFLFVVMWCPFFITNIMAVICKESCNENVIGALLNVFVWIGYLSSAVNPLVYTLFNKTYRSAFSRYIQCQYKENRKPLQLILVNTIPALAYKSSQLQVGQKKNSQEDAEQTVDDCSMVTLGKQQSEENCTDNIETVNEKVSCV
- Set-up: species or system C6 glioma (endogenous rat 5-HT2A)
- Condition summary: relative to 10 uM 5-HT; agonist
Value type: Ca2+ Emax (C6) (%)
# unit: % | format: bare number

The cases that follow already have their Ca2+ Emax (C6) on record.
INSERT INTO measurements (compound, unit_descriptor, reported_result) VALUES
  ('COc1ccc2[nH]cc(CCN(C)C)c2c1 [5-MeO-DMT, 5-methoxy-N,N-dimethyltryptamine]', '%', 0.36),
  ('COc1cc(CCN)cc(OC)c1OC [Mescaline, 3,4,5-trimethoxyphenethylamine]', '%', 0.40),
  ('CCN(CC)C(=O)[C@@H]1C=C2c3cccc4[nH]cc(c34)C[C@H]2N(C)C1 [LSD]', '%', 0.19),
  ('COc1cc(CC(C)N)c(OC)cc1I (stereo not drawn) [DOI, 2,5-dimethoxy-4-iodoamphetamine]', '%', 0.32),
  ('COc1cc(CCNCc2ccccc2OC)c(OC)cc1Br [25B-NBOMe]', '%', 0.46);

Could you now look at the following compound, please?
(Q) Quick one: Ca2+ Emax (C6) of CN(C)CCc1c[nH]c2cccc(O)c12 [psilocin] ?
(A) 0.12
